Provide the reported Time of each item.
- Tested on: Rattus norvegicus
- procedure_summary: Hypertensive activity in anesthetized Wistar rat assessed as time required for maximal increase in mean arterial blood pressure at 0.1 mg/kg, iv measured during 60 mins post dose
- Format: organism-based
- Parameters: dose 0.1 mg/kg, route intravenous
- measurement_setup: in vivo, 1 h
Answers are plain numbers, in min.

Dear colleague, I am looking for the recorded Time of the following compound: Fc1ccc2c(cnn2CC2=NCCN2)c1
2

Dear colleague, I am looking for the recorded Time of the following compound: Fc1cccc2cnn(N=C3NCCN3)c12
4

Dear colleague, I am looking for the recorded Time of the following compound: Fc1ccc2c(cnn2N=C2NCCN2)c1
2

Dear colleague, I am looking for the recorded Time of the following compound: Fc1ccc2cnn(N=C3NCCN3)c2c1
3

Now for a further compound.
Dear colleague, I am looking for the recorded Time of the following compound: Fc1ccc2cnn(CC3=NCCN3)c2c1
4
